Source: ChEMBL document CHEMBL1629440

target: 5-hydroxytryptamine receptor 4 (Homo sapiens, UniProt Q13639); assay: Displacement of [3H]GR113808 from human 5HT4 receptor expressed in HEK293 cells by liquid scintillation counting; type: cell-based
Sequence (Q13639 whole entry): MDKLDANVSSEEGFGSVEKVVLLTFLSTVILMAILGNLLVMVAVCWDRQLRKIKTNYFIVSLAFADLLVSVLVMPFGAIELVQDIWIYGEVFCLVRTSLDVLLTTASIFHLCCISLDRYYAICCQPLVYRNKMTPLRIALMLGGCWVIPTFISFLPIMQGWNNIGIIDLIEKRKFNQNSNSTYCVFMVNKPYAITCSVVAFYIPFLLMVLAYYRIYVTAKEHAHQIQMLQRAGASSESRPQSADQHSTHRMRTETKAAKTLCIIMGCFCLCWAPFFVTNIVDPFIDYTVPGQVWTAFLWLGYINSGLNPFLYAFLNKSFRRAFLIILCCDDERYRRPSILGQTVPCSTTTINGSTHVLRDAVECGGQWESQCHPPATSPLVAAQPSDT
Here the recorded Ki is given for each entry.
Your answer should be a plain number; it is taken to be in nM.

Previously resolved entries follow.
>>> df
                               smilesrecord  valuemeasured
0  O=C(O)CCCCCN1CCC(CNC(=O)c2c3n(c4ccccc24)CCCO3)CC1           1.55
1  CCOP(=O)(CCN1CCC(CNC(=O)c2c3n(c4ccccc24)CCCO3)CC1)OCC           1.26

The record that follows has no Ki shown yet.
Documented Ki of O=C(O)CCN1CCC(CNC(=O)c2c3n(c4ccccc24)CCCO3)CC1 : 1.12
